The measurements presented in this section are drawn from patent US20190127366A1.

tested_on: human complement factor D (Homo sapiens, UniProt P00746)
Construct: purchased R&D Systems 1824-SE
Sequence (P00746 26-253): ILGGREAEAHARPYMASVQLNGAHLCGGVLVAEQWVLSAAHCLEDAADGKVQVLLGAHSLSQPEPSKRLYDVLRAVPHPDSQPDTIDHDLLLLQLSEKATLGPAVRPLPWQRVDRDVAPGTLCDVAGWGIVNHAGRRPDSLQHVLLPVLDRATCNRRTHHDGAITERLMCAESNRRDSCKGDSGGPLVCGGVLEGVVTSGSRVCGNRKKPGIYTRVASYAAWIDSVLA
test_method_notes: In vitro enzyme inhibition (Z-Lys-SBzl/DTNB absorbance assay)
Format: biochemical
test_parameters: Complement Factor D (R&D Systems), substrate Z-Lys-SBzl, A405 nm; read-out: CFD IC50
pIC50: −log10 of the molar value.
pIC50 for assorted compounds

compound: COC(=O)c1ccc(NC(=O)[C@@H]2[C@H]3CC[C@H](C3)N2C(=O)Cn2nc(C(N)=O)c3ccccc32)nc1Cl [Example 107]
tested_on: human complement factor D (Homo sapiens, UniProt P00746)
pIC50: 5.00 to 6.00
--
compound: Cc1ccc2c(c1)c(C(N)=O)nn2CC(=O)N1[C@H](C(=O)Nc2cccc(Cl)n2)C[C@@H]2CCC[C@@H]21 [Example 168]
tested_on: human complement factor D (Homo sapiens, UniProt P00746)
pIC50: > 7.00
--
compound: COc1ccc2c(c1)c(C(C)=O)nn2CC(=O)N1[C@H](C(=O)Nc2cccc(Cl)n2)C[C@@H]2CCC[C@@H]21 [Example 175]
tested_on: human complement factor D (Homo sapiens, UniProt P00746)
pIC50: 6.00 to 7.00
--
compound: COC(=O)c1ccc2c(C(N)=O)nn(CC(=O)N3[C@@H]4CC[C@@H](C4)[C@H]3C(=O)Nc3cccc(Cl)n3)c2c1 [Example 122]
tested_on: human complement factor D (Homo sapiens, UniProt P00746)
pIC50: 6.00 to 7.00
--
compound: NC(=O)c1nn(CC(=O)N2[C@H](C(=O)O)C[C@H]2C(=O)NCc2cccc(Cl)c2F)c2ccccc12 (relative stereo) [Example 195]
tested_on: human complement factor D (Homo sapiens, UniProt P00746)
pIC50: 5.00 to 6.00

Turning now to a further compound:
Given the compound NC(=O)c1nn(CC(=O)N2[C@@H]3CC[C@@H](C3)[C@H]2C(=O)Nc2ccnc(Cl)c2)c2ccccc12 [Example 57] , what is its reported pIC50? 5.00 to 6.00

---

tested_on: human complement factor D (Homo sapiens)
Construct: purchased R&D Systems 1824-SE
test_method_notes: In vitro enzyme inhibition (Z-Lys-SBzl/DTNB absorbance assay)
Assay type: biochemical
test_parameters: Complement Factor D (R&D Systems), substrate Z-Lys-SBzl, A405 nm; read-out: CFD IC50
Each record here notes measured IC50.

Examples from the recorded data:
compound: NC(=O)c1nn(CC(=O)N2CCCCC[C@H]2C(=O)NCc2cccc(Cl)c2F)c2ccccc12 [Example 31]
IC50: 0.1 to 1 µM

compound: CC(=O)c1nn(CC(=O)N2[C@H](C(=O)Nc3cccc(Cl)n3)C[C@@H]3CCC[C@@H]32)c2ccc(C)cc12 [Example 176]
IC50: 0.1 to 1 µM

compound: NC(=O)c1nn(CC(=O)N2[C@@H]3CC[C@@H](C3)[C@H]2C(=O)Nc2cccc(F)n2)c2ccccc12 [Example 53]
IC50: 1 to 10 µM

compound: NC(=O)c1nn(CC(=O)N2[C@@H]3CC[C@@H](C3)[C@H]2C(=O)Nc2cccc(Br)n2)c2ccccc12 [Example 65]
IC50: < 0.1 µM

compound: NC(=O)Cc1ccc2c(C(N)=O)nn(CC(=O)N3[C@@H]4CC[C@@H](C4)[C@H]3C(=O)NCc3cccc(Cl)c3F)c2c1 [Example 128]
IC50: 1 to 10 µM

Param item = O=C(NCCO)c1nn(CC(=O)N2[C@@H]3CC[C@@H](C3)[C@H]2C(=O)Nc2cccc(Cl)n2)c2ccccc12 [Example 89] ; retrieve measured IC50. 1 to 10 µM

Quick one: IC50 of NC(=O)c1nn(CC(=O)N2[C@H](C(=O)NCc3cccc(Cl)n3)C[C@@H]3CCC[C@@H]32)c2ccccc12 [Example 160] ? 1 to 10 µM

---

tested_on: human complement factor D (Homo sapiens)
Construct: purchased R&D Systems 1824-SE
test_method_notes: In vitro enzyme inhibition (Z-Lys-SBzl/DTNB absorbance assay)
Assay type: biochemical
test_parameters: Complement Factor D (R&D Systems), substrate Z-Lys-SBzl, A405 nm; read-out: CFD IC50
property_measured: IC50

The cases that follow already have their IC50 on record.
molecule: CC(=O)c1nn(CC(=O)N2[C@H](C(=O)Nc3cccc(Cl)n3)C[C@@H]3CCC[C@@H]32)c2ccc(F)cc12 [Example 183]
IC50: 1 to 10 µM
--
molecule: NC(=O)c1nn(CC(=O)N2[C@@H]3CC[C@@H](C3)[C@H]2C(=O)Nc2ccc(CO)c(Cl)n2)c2ccccc12 [Example 108]
IC50: 1 to 10 µM
--
molecule: NC(=O)c1nn(CC(=O)N2[C@@H]3CC[C@@H](C3)[C@H]2C(=O)Nc2cccc(Cl)n2)c2cc(C(=O)O)ccc12 [Example 123]
IC50: < 0.1 µM

Return reported IC50; argument: NC(=O)c1nn(CC(=O)N2[C@@H]3CC[C@@H](C3)[C@H]2C(=O)Nc2cccc(C(F)(F)F)n2)c2cnccc12 [Example 9] 0.1 to 1 µM

Fill blank: measured IC50 of the molecule NC(=O)c1nn(CC(=O)N2[C@@H]3CC[C@@H](C3)[C@H]2C(=O)NCc2cccc(Cl)c2F)c2cnccc12 [Example 39] is ____. 0.1 to 1 µM

If you can, please state the reported IC50 value of Cc1cccc(NC(=O)[C@@H]2[C@H]3CC[C@H](C3)N2C(=O)Cn2nc(C(N)=O)c3ccccc32)n1 [Example 6] . 1 to 10 µM

---

tested_on: human complement factor D (Homo sapiens, UniProt P00746)
Construct: purchased R&D Systems 1824-SE
test_method_notes: In vitro enzyme inhibition (Z-Lys-SBzl/DTNB absorbance assay)
Format: biochemical
test_parameters: Complement Factor D (R&D Systems), substrate Z-Lys-SBzl, A405 nm; read-out: CFD IC50
Protocol: The ability of the compounds disclosed herein to inhibit human complement factor D inhibitory activity was quantified according to the 12-step protocol provided below. • 1. Prepare assay buffer: 50 mM Tris/HCl, pH 7.5, 1 M NaCl. • 2. […] For kinetic reading: Immediately start measuring absorbance (A405 nm) continuously and record data every 30sec for 60 min. • 12. Data analysis • Inhibition activity of compound was evaluated by IC50. […]
pIC50: −log10 of the molar value.
property_measured: pIC50

molecule: NC(=O)c1nn(CC(=O)N2CC[C@H]2C(=O)NCc2cccc(Cl)c2F)c2ccccc12
tested_on: human complement factor D (Homo sapiens, UniProt P00746)
measured_result: > 7.00

molecule: NC(=O)c1nn(CC(=O)N2[C@@H]3CC[C@@H](C3)[C@H]2C(=O)Nc2cccc(Cl)n2)c2cc(F)ccc12
tested_on: human complement factor D (Homo sapiens, UniProt P00746)
measured_result: > 7.00

molecule: NC(=O)c1nn(CC(=O)N2[C@@H]3CC[C@@H](C3)[C@H]2C(=O)Nc2cccc(C3CC3)n2)c2cnccc12
tested_on: human complement factor D (Homo sapiens, UniProt P00746)
measured_result: 5.00 to 6.00

molecule: NC(=O)c1nn(CC(=O)N2[C@@H]3CC[C@@H](C3)[C@H]2C(=O)Nc2cccc(OC(F)(F)F)c2F)c2ccccc12
tested_on: human complement factor D (Homo sapiens, UniProt P00746)
measured_result: 5.00 to 6.00

molecule: NC(=O)Cc1ccc2c(c1)c(C(N)=O)nn2CC(=O)N1[C@@H]2CC[C@@H](C2)[C@H]1C(=O)NCc1cccc(Cl)c1F
tested_on: human complement factor D (Homo sapiens, UniProt P00746)
measured_result: 5.00 to 6.00

molecule: N#Cc1cccc(NC(=O)[C@@H]2[C@H]3CC[C@H](C3)N2C(=O)Cn2nc(C(N)=O)c3ccccc32)n1
tested_on: human complement factor D (Homo sapiens, UniProt P00746)
measured_result: 5.00 to 6.00

molecule: NC(=O)c1nn(CC(=O)N2[C@@H]3CC[C@@H](C3)[C@H]2C(=O)NCc2ccc3[nH]cc(Cl)c3c2F)c2ccccc12
tested_on: human complement factor D (Homo sapiens, UniProt P00746)
measured_result: < 5.00

molecule: NC(=O)c1nn(CC(=O)N2[C@@H]3CCC(C3)[C@H]2C(=O)Nc2cccc(Cl)n2)c2ccc(Cl)cc12
tested_on: human complement factor D (Homo sapiens, UniProt P00746)
measured_result: 5.00 to 6.00

pIC50 for `NC(=O)c1nn(CC(=O)N2CCOC[C@H]2C(=O)Nc2cccc(Br)n2)c2ccccc12` ? 5.00 to 6.00

I am curious: what pIC50 value has been reported for `NC(=O)c1nn(CC(=O)N2[C@@H]3CC[C@@H](C3)[C@H]2C(=O)Nc2ncccc2Cl)c2ccccc12` ? < 5.00

Dear colleague, I am looking for the recorded pIC50 of the following molecule: `NC(=O)c1nn(CC(=O)N2[C@@H]3CC[C@@H](C3)[C@H]2C(=O)Nc2cccc(Cl)n2)c2ccc(N)cc12` 6.00 to 7.00

I would be grateful if you could share the reported pIC50 for `NC(=O)n1nc(CC(=O)N2CC[C@H]2C(=O)NCc2cccc(Cl)c2F)c2ccccc21` . > 7.00

State the recorded pIC50 for this entry: `COC(=O)c1ccc2c(c1)c(C(N)=O)nn2CC(=O)N1[C@@H]2CC[C@@H](C2)[C@H]1C(=O)Nc1cccc(Cl)n1` 6.00 to 7.00

Which measured pIC50 value corresponds to NC(=O)c1nn(CC(=O)N2CCC3CC32C(=O)NCc2cccc(Cl)c2F)c2ccccc12 (stereo not drawn) ? < 5.00

Endpoint output: pIC50 of `NC(=O)c1nn(CC(=O)N2[C@H](C(=O)NCc3cccc(Cl)c3F)C[C@@H]3CCC[C@@H]32)c2ccccc12` . Value? > 7.00

Which pIC50 value is on record for `NC(=O)n1cc(CC(=O)N2[C@@H]3CC[C@@H](C3)[C@H]2C(=O)NCc2cccc(Cl)c2F)c2ccccc21` ? 6.00 to 7.00

# lookup: pIC50 of `COc1cc(Cl)nc(NC(=O)[C@@H]2[C@H]3CC[C@H](C3)N2C(=O)Cn2nc(C(N)=O)c3ccccc32)c1` 6.00 to 7.00

Give the measured pIC50 of `NC(=O)c1nn(CC(=O)N2[C@@H]3CC[C@@H](C3)[C@H]2C(=O)NCc2cc(Cl)ccc2Cl)c2ccccc12` . 5.00 to 6.00

Would you kindly share the measured pIC50 for `NC(=O)c1nn(CC(=O)N2[C@H](C(=O)Nc3cccc(Cl)n3)C[C@@H]3CCC[C@@H]32)c2cc(Cl)ccc12` ? 6.00 to 7.00

Look up pIC50: `NC(=O)c1nn(CC(=O)N2[C@@H]3CC[C@@H](C3)[C@H]2C(=O)Nc2cccc(Cl)n2)c2ccncc12` 6.00 to 7.00

Look at this molecule and give its reported pIC50. `NC(=O)c1nn(CC(=O)N2[C@@H]3CC[C@@H](C3)[C@H]2C(=O)Nc2cccc(C(F)(F)F)n2)c2ccccc12` 5.00 to 6.00

Record request: pIC50 value, item `NC(=O)c1nn(CC(=O)N2[C@@H]3CC[C@@H](C3)[C@H]2C(=O)Nc2cccc(-c3ccccc3F)n2)c2ccccc12` < 5.00

Dear colleague, I am looking for the recorded pIC50 of the following molecule: `NC(=O)c1nn(CC(=O)N2[C@@H]3CC[C@@H](C3)[C@H]2C(=O)NCc2cccc(Cl)c2F)c2cc(CC(=O)O)ccc12` 5.00 to 6.00

Value lookup for pIC50; key = `NC(=O)c1nn(CC(=O)N2CCNC[C@H]2C(=O)Nc2cccc(Cl)n2)c2ccccc12` < 5.00

Which pIC50 value is on record for NC(=O)c1nn(CC(=O)N2[C@@H]3CC[C@@H](C3)[C@H]2C(=O)NC(C(=O)O)c2cccc(Cl)c2F)c2ccccc12 (stereo partly drawn) ? 5.00 to 6.00

Reported pIC50 for `N#Cc1ccc2c(c1)c(C(N)=O)nn2CC(=O)N1[C@@H]2CC[C@@H](C2)[C@H]1C(=O)Nc1cccc(Cl)n1` : what is it? 6.00 to 7.00

Query (molecule): CC(=O)N1CCCN(C(=O)Cn2nc(C(N)=O)c3ccccc32)C(C(=O)NCc2cccc(Cl)c2F)C1 (stereo not drawn) ; field requested: pIC50 < 5.00
